All values here come from ChEMBL document CHEMBL3120102.

Target Desc: Telomerase reverse transcriptase (Homo sapiens)
Protocol Summary: Inhibition of human tert transcriptional activity assessed as SEAP activity at 1 uM after 24 hrs by SEAP reporter assay
Parameters: scale not given: the % may be the effect or the level left
Below is a list of entries, each paired with its recorded Activity value.
Measurement Label: Activity (%)

- Structure Smiles: "CCCSc1nc2ccc3c(c2[nH]1)C(=O)c1ccccc1C3=O"
  Target Desc: "Telomerase reverse transcriptase (Homo sapiens)"
  Measured Result: 103
- Structure Smiles: "O=C(Sc1nc2ccc3c(c2[nH]1)C(=O)c1ccccc1C3=O)c1ccccc1[N+](=O)[O-]"
  Target Desc: "Telomerase reverse transcriptase (Homo sapiens)"
  Measured Result: 98
- Structure Smiles: "CCSc1nc2ccc3c(c2[nH]1)C(=O)c1ccccc1C3=O"
  Target Desc: "Telomerase reverse transcriptase (Homo sapiens)"
  Measured Result: 100
- Structure Smiles: "O=C1c2ccccc2C(=O)c2c1ccc1nc(SC(=O)N3CCOCC3)[nH]c21"
  Target Desc: "Telomerase reverse transcriptase (Homo sapiens)"
  Measured Result: 93
- Structure Smiles: "COC(=O)CCCSc1nc2ccc3c(c2[nH]1)C(=O)c1ccccc1C3=O"
  Target Desc: "Telomerase reverse transcriptase (Homo sapiens)"
  Measured Result: 88
- Structure Smiles: "CCN(CC)C(=O)CCSc1nc2ccc3c(c2[nH]1)C(=O)c1ccccc1C3=O"
  Target Desc: "Telomerase reverse transcriptase (Homo sapiens)"
  Measured Result: 97
- Structure Smiles: "COc1cccc2c1C(=O)c1c(O)c3c(c(O)c1C2=O)C[C@@](O)(C(=O)CO)C[C@@H]3O[C@H]1C[C@H](N)[C@H](O)[C@H](C)O1"
  Target Desc: "Telomerase reverse transcriptase (Homo sapiens)"
  Measured Result: 34
- Structure Smiles: "C#CCSc1nc2ccc3c(c2[nH]1)C(=O)c1ccccc1C3=O"
  Target Desc: "Telomerase reverse transcriptase (Homo sapiens)"
  Measured Result: 94
- Structure Smiles: "Cc1cc(C(=O)Sc2nc3ccc4c(c3[nH]2)C(=O)c2ccccc2C4=O)c(C)o1"
  Target Desc: "Telomerase reverse transcriptase (Homo sapiens)"
  Measured Result: 104
- Structure Smiles: "O=C1c2ccccc2C(=O)c2c1ccc1nc(SCC(=O)N3CCCC3)[nH]c21"
  Target Desc: "Telomerase reverse transcriptase (Homo sapiens)"
  Measured Result: 100
- Structure Smiles: "O=C1c2ccccc2C(=O)c2c1ccc1nc(SCCN3CCOCC3)[nH]c21"
  Target Desc: "Telomerase reverse transcriptase (Homo sapiens)"
  Measured Result: 119
- Structure Smiles: "C=CCSc1nc2ccc3c(c2[nH]1)C(=O)c1ccccc1C3=O"
  Target Desc: "Telomerase reverse transcriptase (Homo sapiens)"
  Measured Result: 97
- Structure Smiles: "O=C(Sc1nc2ccc3c(c2[nH]1)C(=O)c1ccccc1C3=O)c1cc(C(F)(F)F)ccc1C(F)(F)F"
  Target Desc: "Telomerase reverse transcriptase (Homo sapiens)"
  Measured Result: 102
- Structure Smiles: "O=C(CCc1ccccc1)Sc1nc2ccc3c(c2[nH]1)C(=O)c1ccccc1C3=O"
  Target Desc: "Telomerase reverse transcriptase (Homo sapiens)"
  Measured Result: 97
- Structure Smiles: "CCCCSc1nc2ccc3c(c2[nH]1)C(=O)c1ccccc1C3=O"
  Target Desc: "Telomerase reverse transcriptase (Homo sapiens)"
  Measured Result: 111
- Structure Smiles: "O=C1c2ccccc2C(=O)c2c1ccc1nc(SC(=O)N3CCCCC3)[nH]c21"
  Target Desc: "Telomerase reverse transcriptase (Homo sapiens)"
  Measured Result: 98
